System: OVCAR-3
Assay: NCI tumour cell line growth inhibition, 48 h
Active and inactive are the calls of the source. No stated cut-off is given here; in the data, active = GI50 up to about 1.1 µM and inactive = higher.
Write down one outcome, taken from Y for active, N for inactive

Answered examples (2):
Clc1ccc(C(Cc2ccccc2)c2c(Cl)nc(N3CCNCC3)nc2Cl)cc1 (configuration not stated)    N
O=C1Nc2ccccc2/C1=N/Nc1ccc([N+](=O)[O-])cc1    N

Query: Could you kindly confirm the outcome this assay logged for COc1ccc2oc3c4c2c1CCC4CCC3=O (configuration not stated) ?
Reply: N

Query: Could you kindly confirm the outcome this assay logged for COc1ccc(/C=C2\N=C(N3CCCCC3)NC2=O)cc1 ?
Reply: N

Query: Could you kindly confirm the outcome this assay logged for O=C(CN(C(=O)OC12CC3CC(CC(C3)C1)C2)C(=O)OC12CC3CC(CC(C3)C1)C2)Oc1ccc([N+](=O)[O-])cc1 ?
Reply: N
